Assay: Aqueous solubility of the compound in water
Assay type: physicochemical
Cut-off 200 µM on solubility, inclusive. At or above means 1 (yes); below means 0 (no).

CCCCCCCCCC(=O)n1c(=S)oc2ccccc21: 0 (no)
O=C(/C=C/c1ccccc1)n1c(=S)oc2ccccc21: 0 (no)
O=C(OCc1ccccc1)n1c(=S)oc2ccccc21: 0 (no)
CCCCCC(=O)n1c(=S)[nH]c2ccccc21: 0 (no)
CCC(=O)n1c(=S)[nH]c2ccccc21: 0 (no)

Next up:
Answer whether solubility of Sc1nc2ccccc2o1 is greater than or equal to 200 µM.
1 (yes)

----------
Test system: Streptococcus agalactiae
Assay: Inhibition of Streptococcus agalactiae 4755 hyaluronidase at 100 uM after 30 mins at pH 5.0 by turbidimetric analysis
What inhibition was measured for each of the following?

CCCCCCCCCC(=O)n1c(=S)oc2ccccc21: 41%
O=C(CCCc1ccccc1)n1c(=S)oc2ccccc21: 47%

Moving on to another compound below.
Look up inhibition for this compound: O=C(CCc1ccccc1)n1c(=S)[nH]c2ccccc21
5%

----------
Assay: Aqueous solubility of the compound in water
Format: physicochemical
What solubility was measured for each of the following?
One number for each entry, in µM.

CCCCCC(=O)n1c(=O)oc2ccccc21: 150

For every item in the list below, what is its measured solubility?
1. CCn1c(S)nc2ccccc21
2. CC(=O)n1c(=O)oc2ccccc21
3. O=C(CCCc1ccccc1)n1c(=S)oc2ccccc21
4. CCn1c(=S)oc2ccccc21
5. CCCC(=O)n1c(=S)[nH]c2ccccc21

[4200, 2000, 100, 400, 190]

For every item in the list below, what is its measured solubility?
1. CCCCCC(=O)n1c(=S)n(C(C)=O)c2ccccc21
2. CCCCCC(=O)n1c(=S)oc2ccccc21

49
130

----------
Test: Inhibition of Streptococcus agalactiae 4755 hyaluronidase at pH 7.4 after 3 hrs by turbidimetric analysis
What IC50 was measured for each of the following?
Answers are plain numbers, in µM.

CCCCCC(=O)n1c(=S)[nH]c2ccccc21: 16
CCn1c(=S)n(C(C)=O)c2ccccc21: 19
CCCC(=O)n1c(=S)[nH]c2ccccc21: 20

For every item in the list below, what is its measured IC50?
1. O=C(CCc1ccccc1)n1c(=S)oc2ccccc21
2. CC(=O)n1c(=S)n(C(C)=O)c2ccccc21
3. O=C(COc1ccccc1)n1c(=S)oc2ccccc21
4. O=C(CCC1CCCCC1)n1c(=S)oc2ccccc21
5. CC(=O)n1c(=S)[nH]c2ccccc21
6. CCCCCCCCCCn1c(-c2ccc(OS(N)(=O)=O)cc2)cc2ccc(OS(N)(=O)=O)cc21
7. CCCCCC(=O)n1c(=S)n(C(C)=O)c2ccccc21

[24, 5, 62, 20, 17, 16, 12]

----------
Biological target: Hyaluronidase (Bos taurus) (UniProt Q8SQG8+Q5E985)
Assay: Inhibition of bovine testes hyaluronidase at 200 uM after 30 mins at pH 5 by turbidimetric analysis
Type: protein assay
The source made the active and inactive calls. The calls are words filed in the database; no cut-off is given here.
MEASURE NAME: inhibition

Example entries begin here.
CCCC(=O)n1c(=S)[nH]c2ccccc21: inactive
CCCCCC(=O)n1c(=S)n(C(C)=O)c2ccccc21: inactive
Sc1nc2ccccc2o1: inactive
O=C(c1cccc(Cl)c1)n1c(=S)[nH]c2ccccc21: inactive
COC(=O)c1ccc2oc(=S)n(C(=O)CCc3ccccc3)c2c1: inactive

For every item in the list below, what is its measured inhibition?
1. CC(=O)n1c(=O)n(C(C)=O)c2ccccc21
2. CCC(=O)n1c(=S)[nH]c2ccccc21
3. COC(=O)c1ccc2oc(=S)[nH]c2c1
4. CCCCCC(=O)n1c(=S)oc2ccccc21
5. CCCCCCCCCC(=O)n1c(=S)oc2ccccc21
6. CCCCCC(=O)n1c(=S)[nH]c2ccccc21

1: inactive; 2: inactive; 3: inactive; 4: inactive; 5: inactive; 6: inactive

For every item in the list below, what is its measured inhibition?
1. O=C1O[C@H]([C@@H](O)CO)C(O)=C1O
2. O=C(CCC1CCCCC1)n1c(=S)oc2ccccc21
3. O=C(OCc1ccccc1)n1c(=S)oc2ccccc21

inactive
inactive
inactive

For every item in the list below, what is its measured inhibition?
1. CCn1c(=S)n(C(C)=O)c2ccccc21
2. CC(=O)n1c(=O)oc2ccccc21

1: inactive; 2: inactive

For every item in the list below, what is its measured inhibition?
1. O=C(CCCc1ccccc1)n1c(=S)oc2ccccc21
2. Sc1nc2ccccc2[nH]1
3. O=C(CCc1ccccc1)n1c(=S)[nH]c2ccccc21
4. CCCCCCCCCCn1c(-c2ccc(OS(N)(=O)=O)cc2)cc2ccc(OS(N)(=O)=O)cc21
5. CCC(=O)n1c(=S)oc2ccccc21
6. O=C(/C=C/c1ccccc1)n1c(=S)oc2ccccc21
7. CC(=O)n1c(=S)n(C(C)=O)c2ccccc21
8. CCn1c(=S)oc2ccccc21

1. inactive
2. inactive
3. inactive
4. inactive
5. inactive
6. inactive
7. inactive
8. inactive

For every item in the list below, what is its measured inhibition?
1. CC(=O)n1c(=S)oc2ccccc21
2. O=C(CCc1ccccc1)n1c(=S)oc2ccccc21
3. O=C(Cc1ccccc1)n1c(=S)oc2ccccc21

1. inactive
2. inactive
3. inactive
